Target: T1, monkey antigen protein (monkey CD112R, Uniprot ID: A0A2K5WVV8) (monkey, UniProt A0A2K5WVV8 41-171)
T1 sequence: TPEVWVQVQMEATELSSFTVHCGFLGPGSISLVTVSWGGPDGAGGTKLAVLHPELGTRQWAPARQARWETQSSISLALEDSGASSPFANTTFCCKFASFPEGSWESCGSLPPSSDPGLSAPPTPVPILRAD
Assay: ELISA, monkey antigen protein (as Example 6.1)
measure name: EC50

Below: 2 binders and their reported EC50.
C19 (antibody, human IgG1, kappa, V domains shown) VH: EVQLVESGGGLVKPGGSLKLSCAASGFTFSDYYMYWVRQTPEKRLEWVATISDAGGYTYYPDSVKGRFTISRDNARNSLYLQMSSLKSEDTAMYFCGREDLWGQGTSVTVSS VL: DIQMTQSPSSLSASLGERVSLTCRASQDIGYSLNWLQQEPDGSVRRLIYATSRLDSGVPKRFSGSRSGSDYSLTISSLESEDFVDYYCLQYASFPYTFGGGTKLEIKR : 0.034 nM
C57 (antibody, human IgG1, kappa, V domains shown) VH: EVQLQQSGPVLVKPGASVKMSCKASGYIFTDYYMHWVKQSHGKSLEWIGIINPYNGDTSYNQKFKDKATLTVDKSSSTAYMELNSLTSEDSAVYYCARDSSNVGNAMDYWGQGTSVTVSS VL: DIQMTQTTSSLSASLGDRVTISCRASQDISNYLNWYLQKPDGTIKLLIYYSSRLHSGVPSRFSGSGSGTDYSLTISNLEQEDIATYFCQQGYTLPRTFGGGTKLEIIR : 0.077 nM

Request: Give the value of EC50 reported for the following: C24 (antibody, human IgG1, kappa, V domains shown) VH: QVQLKQSGPGLVQPSQNLSITCTVSGFSLTGYGINWVRQSPGKGLEWLGVIWSGGNTEYNAAFRSRLSISKDTSKSQVFLKMNSLQADDTAIYSCARDSTGLYAMDYWGPGTSVTVSS VL: DLQMTQTTSSLSASLGDRVTISCRTSQDISNFLNWYQQKPDGPLKLLIYYTSRLHSGVPSRFSGSGSGTDYSLTISNLEQEDIATYFCQQGYMLPPTFGGGTKLEIKR
Response: 0.169 nM
